- target or system: human ether-à-go-go-related gene (hERG) potassium channel (human)
- experimental details: primary screen, population patch clamp on CHO cells stably expressing hERG; higher = less effect of the substance
About 14,000 (4.5%) of roughly 310,000 compounds showed an effect of 50% or more. Effects have a minus sign here. This is one part of a sample in which strong results are shown more often than they occur.
In this section we review reported hERG current change (%, negative = inhibition) at 10uM values for a set of compounds.
Numbers only here, please. The scale is %.

Example entries and their recorded answers appear below.
compound: CC(C)C1N=C(c2ccc3c(c2)OCO3)CC(c2ccccc2O)N1 (stereo not drawn)
target or system: human ether-à-go-go-related gene (hERG) potassium channel (human)
meas value: -20.5
//
compound: Cc1ccc(-c2csc(NC(=S)NC(=O)c3cc4ccccc4o3)n2)cc1
target or system: human ether-à-go-go-related gene (hERG) potassium channel (human)
meas value: 7.09
//
compound: Cn1nc(-c2ccccc2)cc1NC(=O)c1cccs1
target or system: human ether-à-go-go-related gene (hERG) potassium channel (human)
meas value: 5.18
//
compound: COC(=O)c1cccc(NC(=O)c2ccco2)c1
target or system: human ether-à-go-go-related gene (hERG) potassium channel (human)
meas value: 4.02
//
compound: COc1ccc(NC(=O)C/C(C)=N/NC(=O)c2cnccn2)cc1
target or system: human ether-à-go-go-related gene (hERG) potassium channel (human)
meas value: 15.5

Now let's try a different one.
Exercise: Sample `CC(=O)Nc1ccc(S(=O)(=O)N2CCN=C2C)cc1` — what was its hERG current change (%, negative = inhibition) at 10uM?
Solution: 5.24

====

- target or system: human ether-à-go-go-related gene (hERG) potassium channel (human, UniProt Q12809)
- Sequence (Q12809 whole entry, looked up): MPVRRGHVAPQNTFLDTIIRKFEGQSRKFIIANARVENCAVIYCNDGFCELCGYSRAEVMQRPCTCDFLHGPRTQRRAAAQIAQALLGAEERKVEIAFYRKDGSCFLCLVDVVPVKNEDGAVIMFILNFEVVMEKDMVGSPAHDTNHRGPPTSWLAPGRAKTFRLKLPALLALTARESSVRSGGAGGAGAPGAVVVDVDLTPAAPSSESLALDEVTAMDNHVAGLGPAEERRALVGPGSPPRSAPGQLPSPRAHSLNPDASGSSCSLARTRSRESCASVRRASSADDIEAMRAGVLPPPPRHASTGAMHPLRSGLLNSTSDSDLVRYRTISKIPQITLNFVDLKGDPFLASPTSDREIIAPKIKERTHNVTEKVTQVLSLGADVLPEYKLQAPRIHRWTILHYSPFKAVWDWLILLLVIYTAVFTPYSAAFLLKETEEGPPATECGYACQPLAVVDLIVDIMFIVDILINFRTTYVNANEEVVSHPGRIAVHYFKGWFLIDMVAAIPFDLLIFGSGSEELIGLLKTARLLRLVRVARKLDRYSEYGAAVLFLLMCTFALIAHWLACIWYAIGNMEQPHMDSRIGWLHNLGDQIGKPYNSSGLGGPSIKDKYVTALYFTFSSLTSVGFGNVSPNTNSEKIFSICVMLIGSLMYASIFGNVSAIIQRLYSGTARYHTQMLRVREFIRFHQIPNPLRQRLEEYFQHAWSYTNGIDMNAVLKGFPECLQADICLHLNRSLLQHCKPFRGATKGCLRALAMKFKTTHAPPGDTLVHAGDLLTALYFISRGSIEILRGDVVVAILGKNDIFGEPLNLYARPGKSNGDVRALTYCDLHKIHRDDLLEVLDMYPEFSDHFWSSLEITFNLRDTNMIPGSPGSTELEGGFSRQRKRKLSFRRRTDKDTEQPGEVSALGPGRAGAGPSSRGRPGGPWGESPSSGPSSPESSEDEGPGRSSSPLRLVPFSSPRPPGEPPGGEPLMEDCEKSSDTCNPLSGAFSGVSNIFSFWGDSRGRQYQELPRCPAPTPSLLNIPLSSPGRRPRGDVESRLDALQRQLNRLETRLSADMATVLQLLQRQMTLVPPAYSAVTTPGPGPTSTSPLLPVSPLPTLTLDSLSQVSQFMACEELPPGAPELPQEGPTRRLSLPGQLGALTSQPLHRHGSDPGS
- experimental details: primary screen, population patch clamp on CHO cells stably expressing hERG; higher = less effect of the substance
In all, about 310,000 compounds went through this assay and about 14,000 (4.5%) showed an effect of 50% or more. The effect is printed as a negative number. The entries come from a sample that favours strong results as a whole.
property label: hERG current change (%, negative = inhibition) at 10uM
The number alone won't do; follow it with the unit.

molecule: COc1ccc(C)cc1S(=O)(=O)N(CC(=O)N1CCCC1)c1ccccc1
meas value: -37.9%

molecule: COc1ccc(C)cc1S(=O)(=O)N(C)CC(=O)N1CCCC1
meas value: 13.2%

molecule: COc1ccc(Br)cc1S(=O)(=O)N(CC(=O)N1CCOCC1)c1ccccc1
meas value: -47%

molecule: COc1ccc(N(CC(=O)N2CCN(C)CC2)S(=O)(=O)c2cc(C)ccc2OC)cc1Cl
meas value: -60.3%

molecule: CC(=O)OC(C(=O)NCc1ccc(F)cc1)c1ccccn1 (stereo not drawn)
meas value: 4.52%

Exercise: Sample COC(=O)c1nc2n(n1)C(c1ccc([N+](=O)[O-])cc1)C(C(=O)Nc1ccc(Cl)cc1)=C(C)N2 (stereo not drawn) — what was its hERG current change (%, negative = inhibition) at 10uM?
Solution: 13.5%

Exercise: Sample `COc1ccc(C)cc1S(=O)(=O)N(C)CC(=O)N1CCN(C)CC1` — what was its hERG current change (%, negative = inhibition) at 10uM?
Solution: 2.65%

Exercise: Sample `CC(C)(C)OC(=O)N1CCC(CNC(=O)c2cccs2)CC1` — what was its hERG current change (%, negative = inhibition) at 10uM?
Solution: 10.9%

Exercise: Sample `COc1ccc(C)cc1S(=O)(=O)N(CC(=O)N1CCCC1)c1ccc(C)cc1` — what was its hERG current change (%, negative = inhibition) at 10uM?
Solution: -53%

====

- target or system: human ether-à-go-go-related gene (hERG) potassium channel (human, UniProt Q12809)
- experimental details: primary screen, population patch clamp on CHO cells stably expressing hERG; higher = less effect of the substance
Hit rate of the full screen: of about 310,000 compounds, about 14,000 (4.5%) showed an effect of 50% or more. Effects have a minus sign here. The list comes from a sample in which strong results are over-represented; it also holds close analogues and randomly drawn compounds.
Param threshold (-40%) applies to hERG current change (%, negative = inhibition) at 10uM; output MET when value >= threshold, NOT MET when value < threshold.

compound: Cc1cc(N/N=C/c2ccc(F)cc2)nc(NCc2ccccc2)n1
qualitative label: NOT MET

Exercise: Reported hERG current change (%, negative = inhibition) at 10uM at or above -40%? O=S1(=O)CC2SC(=S)N(c3ccccc3)C2C1 (stereo not drawn)
Solution: MET

====

- target or system: human ether-à-go-go-related gene (hERG) potassium channel (human)
- experimental details: primary screen, population patch clamp on CHO cells stably expressing hERG; higher = less effect of the substance
About 14,000 (4.5%) of roughly 310,000 compounds showed an effect of 50% or more. The effect is printed as a negative number. The sample holds strong results, similar compounds and a random draw of the others, so the mix is not that of the screen.
Measured hERG current change (%, negative = inhibition) at 10uM determines class: bucket 1 = under -50%, bucket 2 = from -50% up to -30%, bucket 3 = -30% and over

Answered cases to consult:
molecule: O=C(CSc1nnc(CNC(=O)c2ccccc2F)o1)NCc1ccccc1
target or system: human ether-à-go-go-related gene (hERG) potassium channel (human)
qualitative label: bucket 3
//
molecule: COc1ccc(NC(=S)NCc2ccc3c(c2)cc(C)n3C)cc1
target or system: human ether-à-go-go-related gene (hERG) potassium channel (human);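 also: peak tail current of the secondary pulse compared with the same well before compound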
qualitative label: bucket 3
//
molecule: CN(C)CCNC(=O)c1cc(Sc2ccc(F)cc2)nc2ccccc12
target or system: human ether-à-go-go-related gene (hERG) potassium channel (human);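 also: peak tail current of the secondary pulse compared with the same well before compound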
qualitative label: bucket 1
//
molecule: Cc1ccc(Sc2cc(C(=O)NCCN(C)C)c3ccccc3n2)cc1
target or system: human ether-à-go-go-related gene (hERG) potassium channel (human);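 also: peak tail current of the secondary pulse compared with the same well before compound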
qualitative label: bucket 1

Exercise: Pick a category. Item: `CCN(CC)CCCNC(=O)c1cc(Sc2nnc(C)s2)nc2ccccc12`
Solution: bucket 2

Exercise: Pick a category. Item: Cl.c1ccc(-c2csc(=Nc3cccnc3)n2CC2CCCO2)cc1 (stereo not shown)
Solution: bucket 2

Exercise: Pick a category. Item: `CCN(CC)CCNC(=O)c1cc(Sc2nnc(C)s2)nc2ccccc12`
Solution: bucket 2

Exercise: Pick a category. Item: `Cc1nnc(Sc2cc(C(=O)NCCCN(C)Cc3ccccc3)c3ccccc3n2)s1`
Solution: bucket 1

Exercise: Pick a category. Item: `CC(C)OCCCNC(=O)c1cc(Sc2ccc(F)cc2)nc2ccccc12`
Solution: bucket 3

Exercise: Pick a category. Item: `O=C(NCCCN1CCOCC1)c1cc(-c2ccc(F)cc2)nc2ccccc12`
Solution: bucket 3

====

- target or system: human ether-à-go-go-related gene (hERG) potassium channel (human, UniProt Q12809);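 also: peak tail current of the secondary pulse compared with the same well before compound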
- experimental details: primary screen, population patch clamp on CHO cells stably expressing hERG; higher = less effect of the substance
In all, about 310,000 compounds went through this assay and about 14,000 (4.5%) showed an effect of 50% or more. Effects have a minus sign here. This is one part of a sample in which strong results are shown more often than they occur.
property label: hERG current change (%, negative = inhibition) at 10uM (%)
Numbers only here, please. The scale is %.

compound: O=P(CCN1CCCCC1)(c1ccccc1)c1ccccc1
meas value: -5.98

compound: Cc1cc(NC(=O)Cn2nnc(-c3ccccc3NC(=O)c3ccccc3F)n2)no1
meas value: 12.5

compound: COc1cccc(OCCCN2CCCCCC2)c1.O=C(O)C(=O)O
meas value: -37.8

compound: O=C(NC1CCCCCC1)C1c2ccccc2C(=O)N1Cc1cccnc1 (centres unmarked)
meas value: -3.16

compound: COc1ccc(Cl)cc1NC(=O)CN(C)C(=O)c1cc2c(F)cccc2s1
meas value: -6.32

Exercise: Sample `N=c1c(C(=O)NC2CCCCC2)cc2c(=O)n3ccccc3nc2n1Cc1cccnc1` — what was its hERG current change (%, negative = inhibition) at 10uM?
Solution: -73.3

Exercise: Sample CCOC(=O)C1=C(SCC(=O)Nc2ccccc2)NC(=O)C(C#N)C12CCCCC2 (centres unmarked) — what was its hERG current change (%, negative = inhibition) at 10uM?
Solution: -5.43

Exercise: Sample CCOc1ccccc1CN1CCN(CC2=Cc3cc(OC)ccc3OC2)CC1CCO (centres unmarked) — what was its hERG current change (%, negative = inhibition) at 10uM?
Solution: -83.3

Exercise: Sample `O=C(Nc1cc(-c2ccccc2)sc1C(=O)O)c1cccc(F)c1` — what was its hERG current change (%, negative = inhibition) at 10uM?
Solution: 33.5

Exercise: Sample `Cc1[nH]n(-c2ccccc2)c(=O)c1C=NC1CCCCC1` — what was its hERG current change (%, negative = inhibition) at 10uM?
Solution: -10.5

Exercise: Sample CC(Sc1nnc(CNc2cccc3ccccc23)n1-c1ccccc1)C(=O)N/N=C/c1ccco1 (centres unmarked) — what was its hERG current change (%, negative = inhibition) at 10uM?
Solution: -10.2

Exercise: Sample COc1cccc2c1OCC(CN1CCN(Cc3ccccc3F)C(CCO)C1)=C2 (centres unmarked) — what was its hERG current change (%, negative = inhibition) at 10uM?
Solution: -19.3
